- target.or.system: human LOX-1 (Homo sapiens)
- Construct: expressed in transfected cells; host or cells: CHO-K1 (LOX-1-CHO), doxycycline-induced
- assay: DiI-oxLDL binding to LOX-1-CHO cells (4 ℃, 45 min)
- Type: cell-based
- condition.parameters: DiI-oxLDL 10 µg/mL
property.name: IC50 (nM)
Give bare numbers, in nM.

compound | measure.unit | IC50
Oc1cc(O)c2c(c1)OC(c1ccc(O)c(O)c1)C(O)C2c1c(O)cc(O)c2c1OC(c1ccc(O)c(O)c1)C(O)C2c1c(O)cc(O)c2c1OC(c1ccc(O)c(O)c1)C(O)C2 (stereo not shown) | nM | 47.3

From here, focus on the item given below.
stdin: Supply recorded IC50 for Oc1cc(O)c2c(c1)O[C@H](c1ccc(O)c(O)c1)[C@H](O)[C@H]2c1c(O)cc(O)c2c1O[C@H](c1ccc(O)c(O)c1)[C@H](O)[C@H]2c1c(O)cc(O)c2c1O[C@H](c1ccc(O)c(O)c1)[C@H](O)C2 [procyanidin C1] here.
stdout: 58.8

---

- assay: Plasma concentrations of procyanidin B2 and C1 in rats given OPC
- Assay type: in vivo
- condition.parameters: male, stroke-prone spontaneously hypertensive (SHR-SP), rat, po, 0.5 % (w/v) OPC in drinking saline, rats given 0.5% OPC orally in drinking saline for two days, sampled 7:00–8:00
Provide the recorded concentration at 2 days for the entries that follow.
Numbers only, in ng/mL.

compound | concentration at 2 days [ng/mL]
Oc1cc(O)c2c(c1)O[C@H](c1ccc(O)c(O)c1)[C@H](O)[C@H]2c1c(O)cc(O)c2c1O[C@H](c1ccc(O)c(O)c1)[C@H](O)[C@H]2c1c(O)cc(O)c2c1O[C@H](c1ccc(O)c(O)c1)[C@H](O)C2 | 4.9

Now examine the next entry.
stdin: Tell us which concentration at 2 days value is on record for Oc1cc(O)c2c(c1)O[C@H](c1ccc(O)c(O)c1)[C@H](O)[C@H]2c1c(O)cc(O)c2c1O[C@H](c1ccc(O)c(O)c1)[C@H](O)C2 [procyanidin B2, epicatechin(4β-8)epicatechin]
stdout: 7.9

Data provenance: paper PMC3066543
